STUDY_SYSTEM: T1, HLA DP molecule DPB1*0201 (human)
T1 chain 1: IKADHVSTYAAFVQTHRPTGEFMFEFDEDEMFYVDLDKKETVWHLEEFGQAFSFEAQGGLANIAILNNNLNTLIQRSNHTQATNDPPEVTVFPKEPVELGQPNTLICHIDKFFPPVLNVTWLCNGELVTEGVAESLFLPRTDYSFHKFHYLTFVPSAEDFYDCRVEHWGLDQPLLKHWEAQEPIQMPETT
T1 chain 2: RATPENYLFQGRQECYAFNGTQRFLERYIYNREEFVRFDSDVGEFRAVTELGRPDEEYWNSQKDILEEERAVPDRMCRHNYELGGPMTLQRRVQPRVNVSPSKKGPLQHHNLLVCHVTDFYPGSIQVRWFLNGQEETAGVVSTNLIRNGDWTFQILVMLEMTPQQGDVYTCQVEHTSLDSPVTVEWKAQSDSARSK
ASSAY_OVERVIEW: competition vs radiolabeled peptide, purified HLA-DP
READOUT_NAME: pIC50
Note on units: pIC50 is unitless, being -log10 of a concentration expressed in mol/L.

binder="GSCWAFSGVAATESA [Der f 1 peptide, position 131, GSCWAFSGVAATESA (Peptide ID 3324.0670)]" measurement=5.03
binder="AETCPIFYDVFFAVA [Fel d 1 2 peptide, position 21, AETCPIFYDVFFAVA (Peptide ID 3324.1056)]" measurement=8.09
binder="IFYDVFFAVANGNEL [Fel d 1 2 peptide, position 26, IFYDVFFAVANGNEL (Peptide ID 3324.1052)]" measurement=7.05

Exercise: Which pIC50 value belongs to NALSVLDKIYTSPLC [Fel d 1 1 peptide, position 78, NALSVLDKIYTSPLC (Peptide ID 3324.1050)] ?
Solution: 6.24

Exercise: Next binder: DEYVEQVAQYKALPV [Fel d 1 1 peptide, position 41, DEYVEQVAQYKALPV (Peptide ID 3324.1049)]
Solution: 5.95

Recorded values, source patent US20150004189A1.
